# Organism: Rattus norvegicus
# Assay Text: Open TG-GATES - Regimen: Daily Repeat
# Format: toxicity, organism-based, Sprague-Dawley
# Parameters: regimen Daily Repeat, gender Male, age 6 weeks
# Condition: in vivo, po, 0 mg/kg, 72 h, tissue Blood, route gavage, dose level Control, time 3 day
Result Type: Neu (%)
Just the number in %, nothing appended.

Task item: Need Neu of Cc1cccc(C)c1OCC(C)N (centres undefined) , thanks.
Reply: 13.8

Task item: Need Neu of C[C@H]1O[C@H](O[C@H]2[C@H](O)[C@@H](O)[C@@H](O[C@H]3[C@H](O)[C@@H](O)C(O)O[C@@H]3CO)O[C@@H]2CO)[C@H](O)[C@@H](O)[C@@H]1N[C@H]1C=C(CO)[C@@H](O)[C@H](O)[C@H]1O (some centres undefined) , thanks.
Reply: 21.4

Task item: Need Neu of C[C@H]1C(=O)O[C@@H]2CCN3CC=C(COC(=O)[C@](C)(O)[C@]1(C)O)[C@H]23 , thanks.
Reply: 12.4

Task item: Need Neu of Cn1cc[nH]c1=S , thanks.
Reply: 11.8

###

# Species: Rattus norvegicus
# Assay Text: Open TG-GATES - Regimen: Single
# Type: toxicity, organism-based, Sprague-Dawley
# Set-up: regimen Single, gender Male, age 6 weeks
# Condition: in vivo, po, 0 mg/kg, 3 h, tissue Plasma, route gavage, dose level Control
For each record, write down the corresponding GLC.
Just the number in mg/dL, nothing appended.

Task item: Need GLC of OCCN1CCN(CCCN2c3ccccc3Sc3ccc(C(F)(F)F)cc32)CC1 [FLUPHENAZINE] , thanks.
Reply: 179

Task item: Need GLC of C[C@H]1C(=O)O[C@@H]2CCN3CC=C(COC(=O)[C@](C)(O)[C@]1(C)O)[C@H]23 [MONOCROTALINE] , thanks.
Reply: 185.6

Task item: Need GLC of Cc1cccc(C)c1OCC(C)N (centres undefined) [MEXILETINE] , thanks.
Reply: 192

Task item: Need GLC of O=[N+]([O-])c1ccc(O)c([N+](=O)[O-])c1 [2,4-DINITROPHENOL] , thanks.
Reply: 175.6

Task item: Need GLC of Cc1ccc2cc3c(ccc4ccccc43)c3c2c1CC3 [3-METHYLCHOLANTHRENE] , thanks.
Reply: 185.2

Task item: Need GLC of CCOC(=O)C(C)(C)Oc1ccc(Cl)cc1 [CLOFIBRATE] , thanks.
Reply: 193.4

Task item: Need GLC of C=C(C)[C@H]1Cc2c(ccc3c2O[C@@H]2COc4cc(OC)c(OC)cc4[C@@H]2C3=O)O1 [ROTENONE] , thanks.
Reply: 188.2

Task item: Need GLC of C[C@H]1O[C@H](O[C@H]2[C@H](O)[C@@H](O)[C@@H](O[C@H]3[C@H](O)[C@@H](O)C(O)O[C@@H]3CO)O[C@@H]2CO)[C@H](O)[C@@H](O)[C@@H]1N[C@H]1C=C(CO)[C@@H](O)[C@H](O)[C@H]1O (some centres undefined) [ACARBOSE] , thanks.
Reply: 174.6

Task item: Need GLC of Cn1cc[nH]c1=S [METHIMAZOLE] , thanks.
Reply: 190.6

###

# Species on record: Rattus norvegicus
# Assay Text: Open TG-GATES - Regimen: Daily Repeat
# Format: toxicity, organism-based, Sprague-Dawley
# Parameters: regimen Daily Repeat, gender Male, age 6 weeks
# Condition: in vivo, po, 0 mg/kg, […], tissue Plasma, route gavage, dose level Control, time 14 day
Result Type: Ca (mg/dL)
Just the number in mg/dL, nothing appended.

Task item: Need Ca of C[C@H]1C(=O)O[C@@H]2CCN3CC=C(COC(=O)[C@](C)(O)[C@]1(C)O)[C@H]23 , thanks.
Reply: 10.8

Task item: Need Ca of Cc1cccc(C)c1OCC(C)N (centres undefined) , thanks.
Reply: 10.6

Task item: Need Ca of C[C@H]1O[C@H](O[C@H]2[C@H](O)[C@@H](O)[C@@H](O[C@H]3[C@H](O)[C@@H](O)C(O)O[C@@H]3CO)O[C@@H]2CO)[C@H](O)[C@@H](O)[C@@H]1N[C@H]1C=C(CO)[C@@H](O)[C@H](O)[C@H]1O (some centres undefined) , thanks.
Reply: 10.6

Task item: Need Ca of OCCN1CCN(CCCN2c3ccccc3Sc3ccc(C(F)(F)F)cc32)CC1 , thanks.
Reply: 11

###

For each record, write down the corresponding PT.
# Species on record: Rattus norvegicus
# Assay Text: Open TG-GATES - Regimen: Single
# Type: toxicity, organism-based, Sprague-Dawley
# Set-up: regimen Single, gender Male, age 6 weeks
# Condition: in vivo, po, 0 mg/kg, 3 h, tissue Blood, route gavage, dose level Control
Just the number in s, nothing appended.

Task item: Need PT of Cn1cc[nH]c1=S , thanks.
Reply: 15.8

Task item: Need PT of C=C(C)[C@H]1Cc2c(ccc3c2O[C@@H]2COc4cc(OC)c(OC)cc4[C@@H]2C3=O)O1 , thanks.
Reply: 12.1

Task item: Need PT of OCCN1CCN(CCCN2c3ccccc3Sc3ccc(C(F)(F)F)cc32)CC1 , thanks.
Reply: 12.5

Task item: Need PT of CCOC(=O)C(C)(C)Oc1ccc(Cl)cc1 [CLOFIBRATE] , thanks.
Reply: 12.2

Task item: Need PT of Cc1cccc(C)c1OCC(C)N (stereo not drawn) , thanks.
Reply: 16.1

Task item: Need PT of C[C@H]1O[C@H](O[C@H]2[C@H](O)[C@@H](O)[C@@H](O[C@H]3[C@H](O)[C@@H](O)C(O)O[C@@H]3CO)O[C@@H]2CO)[C@H](O)[C@@H](O)[C@@H]1N[C@H]1C=C(CO)[C@@H](O)[C@H](O)[C@H]1O (stereo partly drawn) , thanks.
Reply: 13.6

Task item: Need PT of C[C@H]1C(=O)O[C@@H]2CCN3CC=C(COC(=O)[C@](C)(O)[C@]1(C)O)[C@H]23 , thanks.
Reply: 16.8

Task item: Need PT of O=[N+]([O-])c1ccc(O)c([N+](=O)[O-])c1 , thanks.
Reply: 11.8

###

# Organism: Rattus norvegicus
# Assay Text: Open TG-GATES - Regimen: Daily Repeat
# Assay type: toxicity, organism-based, Sprague-Dawley
# Set-up: regimen Daily Repeat, gender Male, age 6 weeks
# Condition: in vivo, po, 0 mg/kg, […], tissue Plasma, route gavage, dose level Control, time 14 day
For each record, write down the corresponding DBIL.
Just the number in mg/dL, nothing appended.

Task item: Need DBIL of C=C(C)[C@H]1Cc2c(ccc3c2O[C@@H]2COc4cc(OC)c(OC)cc4[C@@H]2C3=O)O1 [ROTENONE] , thanks.
Reply: 0.01

Task item: Need DBIL of O=C1CN(/N=C/c2ccc([N+](=O)[O-])o2)C(=O)N1 [NITROFURANTOIN] , thanks.
Reply: 0.1

Task item: Need DBIL of O=[N+]([O-])c1ccc(O)c([N+](=O)[O-])c1 [2,4-DINITROPHENOL] , thanks.
Reply: 0.012

Task item: Need DBIL of Cc1cccc(C)c1OCC(C)N (centres undefined) [MEXILETINE] , thanks.
Reply: 0

Task item: Need DBIL of OCCN1CCN(CCCN2c3ccccc3Sc3ccc(C(F)(F)F)cc32)CC1 [FLUPHENAZINE] , thanks.
Reply: 0

Task item: Need DBIL of Cn1cc[nH]c1=S [METHIMAZOLE] , thanks.
Reply: 0

Task item: Need DBIL of CCOC(=O)C(C)(C)Oc1ccc(Cl)cc1 [CLOFIBRATE] , thanks.
Reply: 0.082

Task item: Need DBIL of C[C@H]1O[C@H](O[C@H]2[C@H](O)[C@@H](O)[C@@H](O[C@H]3[C@H](O)[C@@H](O)C(O)O[C@@H]3CO)O[C@@H]2CO)[C@H](O)[C@@H](O)[C@@H]1N[C@H]1C=C(CO)[C@@H](O)[C@H](O)[C@H]1O (some centres undefined) [ACARBOSE] , thanks.
Reply: 0.014

Task item: Need DBIL of C[C@H]1C(=O)O[C@@H]2CCN3CC=C(COC(=O)[C@](C)(O)[C@]1(C)O)[C@H]23 [MONOCROTALINE] , thanks.
Reply: 0.002

###

# Organism: Rattus norvegicus
# Assay Text: Open TG-GATES - Regimen: Daily Repeat
# Format: toxicity, organism-based, Sprague-Dawley
# Design: regimen Daily Repeat, gender Male, age 6 weeks
# Condition: in vivo, po, 0 mg/kg, […], tissue Plasma, route gavage, dose level Control, time 7 day
Field: label. Allowed values: true (K < 4 meq/L) or false (K >= 4 meq/L).

Task item: Lab note: confirm whether the reported K for this compound is below 4 meq/L, equality not counting. compound: O=C1CN(/N=C/c2ccc([N+](=O)[O-])o2)C(=O)N1
Reply: false

Task item: Lab note: confirm whether the reported K for this compound is below 4 meq/L, equality not counting. compound: O=[N+]([O-])c1ccc(O)c([N+](=O)[O-])c1
Reply: false

Task item: Lab note: confirm whether the reported K for this compound is below 4 meq/L, equality not counting. compound: C=C(C)[C@H]1Cc2c(ccc3c2O[C@@H]2COc4cc(OC)c(OC)cc4[C@@H]2C3=O)O1
Reply: false

Task item: Lab note: confirm whether the reported K for this compound is below 4 meq/L, equality not counting. compound: Cc1cccc(C)c1OCC(C)N (centres undefined)
Reply: false

Task item: Lab note: confirm whether the reported K for this compound is below 4 meq/L, equality not counting. compound: OCCN1CCN(CCCN2c3ccccc3Sc3ccc(C(F)(F)F)cc32)CC1
Reply: false

Task item: Lab note: confirm whether the reported K for this compound is below 4 meq/L, equality not counting. compound: C[C@H]1C(=O)O[C@@H]2CCN3CC=C(COC(=O)[C@](C)(O)[C@]1(C)O)[C@H]23
Reply: false

Task item: Lab note: confirm whether the reported K for this compound is below 4 meq/L, equality not counting. compound: C[C@H]1O[C@H](O[C@H]2[C@H](O)[C@@H](O)[C@@H](O[C@H]3[C@H](O)[C@@H](O)C(O)O[C@@H]3CO)O[C@@H]2CO)[C@H](O)[C@@H](O)[C@@H]1N[C@H]1C=C(CO)[C@@H](O)[C@H](O)[C@H]1O (some centres undefined)
Reply: true

Task item: Lab note: confirm whether the reported K for this compound is below 4 meq/L, equality not counting. compound: CCOC(=O)C(C)(C)Oc1ccc(Cl)cc1 [CLOFIBRATE]
Reply: true
